Experiment: WST-1 cytotoxicity test, PANC-1
Assay type: cell-based
Settings: human, PANC-1 cells; PANC-1, doxorubicin 1 µM cytotoxicity control, WST-1, mean ± SD; read-out: relative viability (%) compared to untreated control
assay-endpoint: viability at 48 h, 1 µM (%)

molecule | assay-endpoint | recorded-measurement
COc1cccc2c1C(=O)c1c(O)c3c(c(O)c1C2=O)C[C@@](O)(C(=O)CO)C[C@@H]3O[C@H]1C[C@H](N)[C@H](O)[C@H](C)O1 [DOX, doxorubicin, reference compound] | viability at 48 h, 1 µM | 78

====

Test: WST-1 cytotoxicity test, Jurkat
Format: cell-based
Details: human, Jurkat cells, doxorubicin 1 µM cytotoxicity control, WST-1, mean ± SD, read-out: relative viability (%) compared to untreated control

molecule | viability at 48 h, 1 µM
COc1cccc2c1C(=O)c1c(O)c3c(c(O)c1C2=O)C[C@@](O)(C(=O)CO)C[C@@H]3O[C@H]1C[C@H](N)[C@H](O)[C@H](C)O1 [DOX, doxorubicin, reference compound] | 2%

====

System: BALB/c mice
Assay: Safe use evaluation in vivo (MTD, symptoms, blood biochemistry, histopathology)
Parameters: key: + (mild); ++ (moderate); +++ (severe)
Settings: female mice, at MTD i.p., animals 1 and 2

compound | hyper/hypoventilation
Cl.Cl.Cl.OCCN1CCN(CCCNc2ccccc2)CC1 | ++
COc1ccc(NCCCN2CCN(CCO)CC2)cc1.Cl.Cl.Cl | ++
Cl.Cl.Cl.OCCN1CCN(CCCNc2cccc3ccccc23)CC1 | ++
Cl.Cl.Cl.OCCN1CCN(CC(O)CNc2ccccc2)CC1 (stereo not shown) | +

====

Assay: Safe use evaluation in vivo (MTD, symptoms, blood biochemistry, histopathology)
Settings: both sexes, mouse, in vivo, ip; BALB/c mice, i.p., two males and two females per group; read-out: MTD (maximum tolerated dose)

compound | MTD at 48 h (mg/kg)
Cc1cc(OCC(O)CN2CCN(CCO)CC2)ccc1Cl.Cl.Cl (stereo not drawn) [Compound 4] | 100
OCCN1CCN(CC(O)CN2CCN(CCO)CC2)CC1 [Compound 8] | 2000
Cl.Cl.Cl.OCCN1CCN(CCCNc2ccccc2)CC1 [Compound 5] | 200
COc1ccc(NCCCN2CCN(CCO)CC2)cc1.Cl.Cl.Cl [Compound 7] | 200
Cl.Cl.Cl.OCCN1CCN(CC(O)CNc2ccccc2)CC1 (stereo not drawn) [Compound 10] | 650
Cl.Cl.Cl.OCCN1CCN(CCCNc2cccc3ccccc23)CC1 [Compound 6] | 100

====

Test: WST-1 cytotoxicity test, Jurkat
Format: cell-based
Details: human, Jurkat cells, 100 µM, 48 h, WST-1, mean ± SD of three experiments, read-out: relative viability (%) compared to untreated control
Parameter: viability at 48 h, 100 µM. Scope: all listed entries.

molecule | viability at 48 h, 100 µM [%]
Cl.Cl.Cl.OCCN1CCN(CCCNc2cccc3ccccc23)CC1 [Compound 6] | 93
COc1ccc(NCCCN2CCN(CCO)CC2)cc1.Cl.Cl.Cl [Compound 7] | 96
Cl.Cl.Cl.OCCN1CCN(CC(O)CNc2ccccc2)CC1 (centres unmarked) [Compound 10] | 95
COc1ccc2nc3c(c(NCCN4CCN(CCO)CC4)c2c1)CCCC3.Cl.Cl.Cl [Compound 3] | 12
Cl.Cl.Cl.OCCN1CCN(CCCNc2ccccc2)CC1 [Compound 5] | 98
OCCN1CCN(CC(O)CN2CCN(CCO)CC2)CC1 [Compound 8] | 96
Cl.Cl.OC(CNc1ccccc1)CNc1ccccc1 [Compound 9] | 79
Cc1cc(OCC(O)CN2CCN(CCO)CC2)ccc1Cl.Cl.Cl (centres unmarked) [Compound 4] | 89
